We begin with a simple list: items and their reported lesion detected in primer extensions (sensitivity of PADDA).
Biological target: T1, Vent exo− (Thermococcus litoralis, UniProt P30317, D141A/DEL1082-1471/DEL495-1032/E143A)
T1 construct: Vent exo−, a truncated form of a native DNA polymerase (Vent, NEB); purchased NEB
T1 sequence (P30317 other isoform, or with tags, fused parts or gaps D141A/E143A/DEL495-1032/DEL1082-1471): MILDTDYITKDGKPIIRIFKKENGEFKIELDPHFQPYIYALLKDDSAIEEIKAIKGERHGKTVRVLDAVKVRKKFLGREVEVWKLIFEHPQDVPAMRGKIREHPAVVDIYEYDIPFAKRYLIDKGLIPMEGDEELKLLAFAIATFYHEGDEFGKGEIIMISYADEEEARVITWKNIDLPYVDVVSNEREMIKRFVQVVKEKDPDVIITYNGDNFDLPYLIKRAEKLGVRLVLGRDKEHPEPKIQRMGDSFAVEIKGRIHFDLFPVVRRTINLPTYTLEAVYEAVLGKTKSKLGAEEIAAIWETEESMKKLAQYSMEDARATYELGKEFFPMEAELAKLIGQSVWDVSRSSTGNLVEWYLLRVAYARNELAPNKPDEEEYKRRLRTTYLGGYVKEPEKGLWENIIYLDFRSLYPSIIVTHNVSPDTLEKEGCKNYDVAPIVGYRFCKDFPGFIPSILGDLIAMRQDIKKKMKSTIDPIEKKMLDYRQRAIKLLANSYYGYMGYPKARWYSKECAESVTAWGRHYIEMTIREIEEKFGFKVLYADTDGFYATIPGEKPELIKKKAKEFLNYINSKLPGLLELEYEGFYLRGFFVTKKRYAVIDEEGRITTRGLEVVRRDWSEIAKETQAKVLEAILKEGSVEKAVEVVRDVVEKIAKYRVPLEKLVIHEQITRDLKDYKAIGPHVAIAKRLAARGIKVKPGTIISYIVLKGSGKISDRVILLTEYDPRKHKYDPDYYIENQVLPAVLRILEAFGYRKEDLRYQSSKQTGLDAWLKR
Experiment: f-PADDA primer extension on synthetic oligonucleotides containing a single engineered lesion
Format: biochemical
Details: engineered lesion in 64 base template; at least 20 independent events per lesion
Description: A single non-cycled primer-extension reaction in the region of interest was performed to screen for DNA damage. It will be understood that the presently disclosed and claimed inventive concepts are not limited to these oligonucleotides. […]
quantity kind: lesion detected in primer extensions (sensitivity of PADDA) (%)

INSERT INTO assay_data (molecule, measured_value) VALUES
  ('thymine glycol lesion: synthetic template oligonucleotide containing a single 5R,6S-dihydroxy-5,6-dihydrothymine (thymine glycol) (nucleic acid, thymine glycol lesion, further chemistry not given here) DNA: CCACTCACCGGCACATAACAGACTTGGCTGTCCCAGACTGCAGGAAGCCCAGGTGGAAGCCAT', 67),
  ('Abasic sites: 64 base synthetic template oligonucleotide with a single abasic site (dSpacer tetrahydrofuran analog) (nucleic acid, abasic tetrahydrofuran site, further chemistry not given here) DNA: CCACTCTCCATGCACATAACAGACTTGGCTCACCTGCACTCAGGAAGCCCAGGTGGAAGCCAT', 100),
  ('8-oxo-dA lesion: synthetic template oligonucleotide containing a single 7,8-dihydro-8-oxo-2′-deoxyadenosine (8-oxo-dA) (nucleic acid, 8-oxo-dA lesion, chemistry not fully specified) DNA: CCACTCTCCATGCACATAACAGACTTGGCTGTGCNCGGTGCTCAGGAAGCCCAGGTGGAAGCCAT', 100),
  ('8-OxoG lesion: synthetic template oligonucleotide containing a single 7,8-dihydro-8-oxo-2′-deoxyguanosine (8-oxo-dG) (nucleic acid, 8-oxo-dG lesion, chemistry not fully specified) DNA: CCACTCACCNTGCACATAACAGACTTGGCTGTCCCAGACTGCAGGAAGCCCAGGTGGAAGCCAT', 85);
